IC50 for assorted compounds
Tested on: NCI-H727;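 further: growth inhibition of human NCI-H727 cells, read out with a cell viability assay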
protocolNotes: cells
Type: functional, cell-based
conditionSet: Homo sapiens
Description: SANGER: Inhibition of human NCI-H727 cell growth in a cell viability assay.
measureName: IC50 (nM)

1) CCNC(=O)c1noc(-c2cc(C(C)C)c(O)cc2O)c1-c1ccc(CN2CCOCC2)cc1
10.3
2) C/C=C(/C)C(=O)O[C@H]1C(C)=C2[C@H]([C@@H]1OC(=O)CCCCCCC)[C@@](C)(OC(C)=O)C[C@H](OC(=O)CCC)[C@@]1(O)[C@H]2OC(=O)[C@@]1(C)O
8.36
3) CC(C)=CC[C@@H](O)C1=CC(=O)c2c(O)ccc(O)c2C1=O
638

###

System: Calu-6;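 further: growth of human Calu-6 cells, read out by a cell viability assay, IC50 marking inhibition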
protocolNotes: cells
Format: functional, cell-based
conditionSet: Homo sapiens
Description: SANGER: Inhibition of human Calu-6 cell growth in a cell viability assay.
pIC50: −log10 of the molar value.
measureName: pIC50

1) C/C=C(/C)C(=O)O[C@H]1C(C)=C2[C@H]([C@@H]1OC(=O)CCCCCCC)[C@@](C)(OC(C)=O)C[C@H](OC(=O)CCC)[C@@]1(O)[C@H]2OC(=O)[C@@]1(C)O
8.32
2) Cc1ccc(NC(=O)c2cccc(C(C)(C)C#N)c2)cc1Nc1ccc2ncn(C)c(=O)c2c1
7.29

###

System: NH-12
protocolNotes: cells
Format: functional, cell-based
conditionSet: Homo sapiens
Description: SANGER: Inhibition of human NH-12 cell growth in a cell viability assay.
pIC50: −log10 of the molar value.
measureName: pIC50

1) CO[C@@]12[C@H](COC(N)=O)C3=C(C(=O)C(C)=C(N)C3=O)N1C[C@@H]1N[C@@H]12 [MITOMYCIN]
6.86
2) CC[C@]1(O)C[C@@H]2CN(CCc3c([nH]c4ccccc34)[C@@](C(=O)OC)(c3cc4c(cc3OC)N(C)[C@H]3[C@@](O)(C(=O)OC)[C@H](OC(C)=O)[C@]5(CC)C=CCN6CC[C@]43[C@@H]65)C2)C1 [VINBLASTINE]
7.58

###

Tested on: NCI-H441
protocolNotes: cells
Type: functional, cell-based
conditionSet: Homo sapiens
Description: SANGER: Inhibition of human NCI-H441 cell growth in a cell viability assay.
measureName: IC50

1. CC(O)(CS(=O)(=O)c1ccc(F)cc1)C(=O)Nc1ccc(C#N)c(C(F)(F)F)c1 (stereo unspecified) [BICALUTAMIDE]
> 1020 nM
2. CC(=O)c1c(C)c2cnc(Nc3ccc(N4CCNCC4)cn3)nc2n(C2CCCC2)c1=O
1550 nM
3. Cn1cc(/C=C2\C(=O)Nc3cccnc32)c2ccccc21
> 2000 nM
4. COc1cc(Nc2c(C#N)cnc3cc(OCCCN4CCN(C)CC4)c(OC)cc23)c(Cl)cc1Cl
> 2000 nM
5. CC(C)=CC[C@@H](O)C1=CC(=O)c2c(O)ccc(O)c2C1=O
15800 nM
6. C/C(O)=C(\C#N)C(=O)Nc1cc(Br)ccc1Br
> 16000 nM

###

Test system: NCI-H889;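 further: cell growth inhibition of the cell line, read out with a viability assay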
protocolNotes: cells
Format: functional, cell-based
conditionSet: Homo sapiens
Description: SANGER: Inhibition of human NCI-H889 cell growth in a cell viability assay.
measureName: IC50

1) O=c1[nH]c2ccccc2n1C1CCN(Cc2ccc(-c3nc4cc5[nH]cnc5cc4nc3-c3ccccc3)cc2)CC1
> 2.56 µM
2) CO[C@@]12[C@H](COC(N)=O)C3=C(C(=O)C(C)=C(N)C3=O)N1C[C@@H]1N[C@@H]12
2.48 µM
3) Cc1n[nH]c2ccc(-c3cncc(OC[C@@H](N)Cc4c[nH]c5ccccc45)c3)cc12
> 1.02 µM
4) CCNC(=O)c1noc(-c2cc(C(C)C)c(O)cc2O)c1-c1ccc(CN2CCOCC2)cc1
> 0.256 µM
5) C/C=C(/C)C(=O)O[C@H]1C(C)=C2[C@H]([C@@H]1OC(=O)CCCCCCC)[C@@](C)(OC(C)=O)C[C@H](OC(=O)CCC)[C@@]1(O)[C@H]2OC(=O)[C@@]1(C)O
> 0.512 µM
6) C/C(O)=C(\C#N)C(=O)Nc1cc(Br)ccc1Br
> 16 µM
7) N#C/C(=C1/Nc2ccccc2S1)c1ccnc(NCCc2cccnc2)n1
> 8 µM
8) Cc1nc(Nc2ncc(C(=O)Nc3c(C)cccc3Cl)s2)cc(N2CCN(CCO)CC2)n1
> 1.28 µM
9) Cc1ccc(NC(=O)c2cccc(C(C)(C)C#N)c2)cc1Nc1ccc2ncn(C)c(=O)c2c1
> 4 µM

###

Test system: SK-N-DZ;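 further: growth inhibition of the cancer cell line, read out through a viability assay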
protocolNotes: cells
Assay type: functional, cell-based
conditionSet: Homo sapiens
Description: SANGER: Inhibition of human SK-N-DZ cell growth in a cell viability assay.
Strictly below 2000 nM in IC50: Criterion met. Otherwise: Criterion not met.

1. CC(C)=CC[C@@H](O)C1=CC(=O)c2c(O)ccc(O)c2C1=O
Criterion met
2. CC[C@]1(O)C[C@@H]2CN(CCc3c([nH]c4ccccc34)[C@@](C(=O)OC)(c3cc4c(cc3OC)N(C)[C@H]3[C@@](O)(C(=O)OC)[C@H](OC(C)=O)[C@]5(CC)C=CCN6CC[C@]43[C@@H]65)C2)C1
Criterion met
3. CO[C@@]12[C@H](COC(N)=O)C3=C(C(=O)C(C)=C(N)C3=O)N1C[C@@H]1N[C@@H]12
Criterion not met
4. CC[C@@]1(O)C(=O)OCc2c1cc1n(c2=O)Cc2cc3ccccc3nc2-1
Criterion met
5. O=c1[nH]c2ccccc2n1C1CCN(Cc2ccc(-c3nc4cc5[nH]cnc5cc4nc3-c3ccccc3)cc2)CC1
Criterion not met
6. Fc1cc(-c2cc[nH]/c(=N/c3ccc(-n4cnc(N5CCOCC5)n4)cc3)n2)cc(N2CCOCC2)c1
Criterion met

###

Tested on: RCC10RGB;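 further: growth inhibition of human RCC10RGB cells, read out by a cell viability assay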
protocolNotes: cells
Format: functional, cell-based
conditionSet: Homo sapiens
Description: SANGER: Inhibition of human RCC10RGB cell growth in a cell viability assay.
measureName: IC50

1) CO[C@@]12[C@H](COC(N)=O)C3=C(C(=O)C(C)=C(N)C3=O)N1C[C@@H]1N[C@@H]12
1.35 µM
2) Cn1cc(/C=C2\C(=O)Nc3cccnc32)c2ccccc21
> 2 µM
3) CCNC(=O)c1noc(-c2cc(C(C)C)c(O)cc2O)c1-c1ccc(CN2CCOCC2)cc1
> 0.256 µM
4) O=c1cc(N2CCOCC2)oc2c(-c3cccc4c3sc3ccccc34)cccc12
> 2 µM
5) NC(=O)c1ncn([C@@H]2O[C@H](COP(=O)(O)O)[C@@H](O)[C@H]2O)c1N
> 2000 µM
6) Cc1n[nH]c2ccc(-c3cncc(OC[C@@H](N)Cc4c[nH]c5ccccc45)c3)cc12
> 1.02 µM

###

Test system: YH-13;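 further: cell viability readout of growth suppression in the human YH-13 cell line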
protocolNotes: cells
Type: functional, cell-based
conditionSet: Homo sapiens
Description: SANGER: Inhibition of human YH-13 cell growth in a cell viability assay.
pIC50: −log10 of the molar value.
# pIC50 per record follows
measureName: pIC50

1) CC[C@@]1(O)C(=O)OCc2c1cc1n(c2=O)Cc2cc3ccccc3nc2-1 [CAMPTOTHECIN]
7.93
2) Cn1c(=O)n(-c2ccc(C(C)(C)C#N)cc2)c2c3cc(-c4cnc5ccccc5c4)ccc3ncc21 [DACTOLISIB]
7.66

###

System: ES6
protocolNotes: cells
Format: functional, cell-based
conditionSet: Homo sapiens
Description: SANGER: Inhibition of human ES6 cell growth in a cell viability assay.
measureName: IC50

1) C/C=C(/C)C(=O)O[C@H]1C(C)=C2[C@H]([C@@H]1OC(=O)CCCCCCC)[C@@](C)(OC(C)=O)C[C@H](OC(=O)CCC)[C@@]1(O)[C@H]2OC(=O)[C@@]1(C)O
< 2 nM
2) Cc1nc(Nc2ncc(C(=O)Nc3c(C)cccc3Cl)s2)cc(N2CCN(CCO)CC2)n1
31.9 nM
3) Cc1n[nH]c2ccc(-c3cncc(OC[C@@H](N)Cc4c[nH]c5ccccc45)c3)cc12
91.5 nM
4) CCNc1cc(N[C@H]2CC[C@@H](O)CC2)nc(Nc2ccc3c(ccn3Cc3ccccc3)c2)n1
> 5120 nM
5) Cn1cc(/C=C2\C(=O)Nc3cccnc32)c2ccccc21
> 2000 nM
6) CCn1c(-c2nonc2N)nc2cnc(Oc3cccc(NC(=O)c4ccc(OCCN5CCOCC5)cc4)c3)cc21 [GSK-269962A]
247 nM
7) CCCS(=O)(=O)Nc1ccc(F)c(C(=O)c2c[nH]c3ncc(Cl)cc23)c1F
> 10000 nM
8) Cc1[nH]c(/C=C2\C(=O)Nc3ccc(S(=O)(=O)Cc4c(Cl)cccc4Cl)cc32)c(C)c1C(=O)N1CCC[C@@H]1CN1CCCC1
> 2000 nM
9) C/C(O)=C(\C#N)C(=O)Nc1cc(Br)ccc1Br
> 16000 nM
10) C[C@]1(c2nc3c(C(N)=O)cccc3[nH]2)CCCN1
> 5000 nM
11) CC(=O)c1c(C)c2cnc(Nc3ccc(N4CCNCC4)cn3)nc2n(C2CCCC2)c1=O
> 4000 nM
12) Cn1c(=O)n(-c2ccc(C(C)(C)C#N)cc2)c2c3cc(-c4cnc5ccccc5c4)ccc3ncc21
92.8 nM

###

The compounds listed here are annotated with their pIC50.
Test system: J82
protocolNotes: cells
Assay type: functional, cell-based
conditionSet: Homo sapiens
Description: SANGER: Inhibition of human J82 cell growth in a cell viability assay.
pIC50: −log10 of the molar value.
measureName: pIC50

1. CC(C)=CC[C@@H](O)C1=CC(=O)c2c(O)ccc(O)c2C1=O
6.85
2. CC[C@@]1(O)C(=O)OCc2c1cc1n(c2=O)Cc2cc3ccccc3nc2-1
8.33
3. CC[C@]1(O)C[C@@H]2CN(CCc3c([nH]c4ccccc34)[C@@](C(=O)OC)(c3cc4c(cc3OC)N(C)[C@H]3[C@@](O)(C(=O)OC)[C@H](OC(C)=O)[C@]5(CC)C=CCN6CC[C@]43[C@@H]65)C2)C1
7.16
4. CCNC(=O)c1noc(-c2cc(C(C)C)c(O)cc2O)c1-c1ccc(CN2CCOCC2)cc1
7.52
